- assay_comment: antimalarial activity against Dd2 strain (AID 2302);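 note: 0% = DMSO untreated growth and 100% = chloroquine plus artemisinin killed control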
- condition_label: P. falciparum Dd2 in RBCs, LDH growth readout, 72 h; at 2 µM; hits give high values
Consider the following molecules; for each one, report its growth inhibition.
Numbers only, in %.

Some solved entries appear below for comparison.
IN: Need growth inhibition, item "O=C(/C=C/c1cccc(OC(F)(F)F)c1)NCCCCCN1CCC(c2c[nH]c3ccccc23)CC1"
OUT: 13

IN: Same thing, different molecule: "COc1ccccc1C1CCN(Cc2csc(NC(=O)c3ccc(-c4ccc(C(F)(F)F)cc4)cc3)n2)CC1"
OUT: 23

IN: Same thing, different molecule: "CC1(C)N=C(N)N=C(N)N1OCc1nc(N)nc(Nc2ccccc2)n1"
OUT: -4

Below are 6 molecules. Give each one its growth inhibition.
1. CCCCC(CCCC)CN1C(=O)C(c2ccccc2)(c2ccccc2)N=C1N
2. Cc1c(Cn2ncc(N3C[C@@H](C)N[C@@H](C)C3)c(Cl)c2=O)cccc1NC(=O)Nc1ccc(-c2ccccc2)cc1
3. CCCNCc1ccc(-c2ccc(CN(CCOC)C(=O)CCC(=O)c3ccc(OC)c(F)c3)cc2)nc1
4. COc1ccc2nccc([C@@H](O)CN3CCC(NC(=O)C(c4cc5ccccc5s4)N4CC(C)OC(C)C4)CC3)c2c1 (some centres undefined)
5. CC(C)CCNC(=O)C1Cc2c([nH]c3cc(Br)ccc23)C2(CCN(CCc3ccccc3)CC2)N1 (centres undefined)
6. CCCCCCN1CCN(Cc2cccc(NC(=O)c3ccc(Cl)c(Cl)c3)c2)CC1

OUT:
1. 96
2. 35
3. 47
4. 44
5. 48
6. 51

* * *

- assay_comment: inhibition of 3D7 malaria parasite growth – strain 3D7 (AID 2306);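 note: 0% = DMSO wells and 100% = chloroquine plus artemisinin control wells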
- condition_label: P. falciparum 3D7 erythrocytic growth, LDH absorbance, 72 h; at 2 µM; hits give high values
Consider the following compounds; for each one, report its growth inhibition.
One number for each entry, in %.

Some solved entries appear below for comparison.
IN: Need growth inhibition, item "CC(C)=C(C(=O)OCc1ccccc1)N1C(=O)[C@@H](NC(c2ccccc2)(c2ccccc2)c2ccccc2)[C@H]1[S@@](=O)CC(=O)OC(C)(C)C"
OUT: 92

IN: Same thing, different compound: "Oc1ccc(-c2ccccc2)cc1CN1CCCCC1"
OUT: 93

Below are 2 compounds. Give each one its growth inhibition.
1. COc1c(C2CCN(CCCCNC(=O)c3ccc(-c4ccc(C#N)cc4)nc3)CC2)ccc2c1CCCC2
2. Cc1cc(N2CCCC2)nc(Nc2ccc(NC(=O)c3ccc(Br)o3)cc2)n1

OUT:
[95, 99]

* * *

Consider the following compounds; for each one, report its inhibition.
- assay_comment: human hepatoma cell viability loss – ATP luminescence, cytotoxicity control for P. falciparum antimalarial project, primary screen (AID 2303);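 note: 0% = DMSO wells and 100% = digitonin-killed cells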
- condition_label: HepG2 viability, 24-48 h, at 10 µM, hits give high values
One number for each entry, in %.

Some solved entries appear below for comparison.
IN: Need inhibition, item "Cc1cccnc1CNc1nccc2c(C)c(C)[nH]c12"
OUT: 27

IN: Same thing, different compound: O=C(/C=C/c1ccc(Cl)c(Cl)c1)NCCCCCN1CCCC(C(=O)Nc2cccc(Cl)c2)C1 (centres undefined)
OUT: 41

IN: Same thing, different compound: "O=C(/C=C/c1ccc(Cl)c(Cl)c1)NCCCCCN1CCC(NC(=O)NC2CCCC2)CC1"
OUT: 21

IN: Same thing, different compound: "CC(=O)Nc1cccc(C(=O)Nc2ccc(-c3ccc(-c4nc5c(C)cccc5[nH]4)s3)cc2)c1"
OUT: 94

IN: Same thing, different compound: "O=C(Nc1cccc(CN2CCCN(Cc3cccnc3)CC2)c1)c1cc2ccccc2s1"
OUT: 15

IN: Same thing, different compound: COc1cc2c(cc1OC)C(C(=O)Nc1ccc(C(F)(F)F)cc1)C(c1cccs1)N(C)C2=O (centres undefined)
OUT: 31

Below are 5 compounds. Give each one its inhibition.
1. CCNc1cc(C)nc(Nc2ccc(NC(=O)C3CCCC3)cc2)n1
2. N#Cc1ccc(-c2ccc(C(=O)NCCCCN3CCC(c4cn(CCCO)c5ccccc45)CC3)cc2)cc1
3. O=C(NCc1cccc(F)c1)Nc1ccc(-c2ccc(-c3nc4ccc(C(F)(F)F)cc4[nH]3)cc2)cc1
4. COc1ccc(Nc2nccc(N3CCC(NC(=O)C(C)c4ccc(Cl)cc4)CC3)n2)cc1 (centres undefined)
5. NC(=O)c1cccc(CNCc2ccc(-c3cccc(-c4nc5ccccc5[nH]4)c3)cc2)c1

OUT:
[13, 31, 46, 18, 29]

Below are 8 compounds. Give each one its inhibition.
1. O=C(NCC1CCN(Cc2ccsc2)C1)c1cc(-c2cccc(C(F)(F)F)c2)cs1 (centres undefined)
2. CC(CNC(=O)C(c1cc2ccccc2o1)N1CCN(C(c2ccccc2)c2ccccc2)CC1)c1ccccc1 (centres undefined)
3. O=C(Nc1ccc(Cl)cc1)c1ccc(CN2CCCN(CC3CCCCC3)CC2)cc1
4. NCC1CCCN1Cc1ccc(-c2ccc(-c3nc4ccc(C(F)(F)F)cc4[nH]3)s2)cc1 (centres undefined)
5. CN(C)Cc1cccc(CNC(=O)c2sccc2OCc2ccc(Cl)cc2)c1
6. O=S(=O)(NCCN1CCCC1)c1ccc(-c2ccc(CNCc3ccsc3)cc2)s1
7. Cc1cc(NN=Cc2cccc(Cl)c2)c2ccccc2n1
8. Clc1ccc(-c2csc3ncnc(Cl)c23)cc1

OUT:
1: 37; 2: 2; 3: 48; 4: 31; 5: 7; 6: 31; 7: 22; 8: -3

* * *

- assay_comment: antimalarial activity against Dd2 strain (AID 2302);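 note: 0% = DMSO untreated growth and 100% = chloroquine plus artemisinin killed control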
- condition_label: P. falciparum Dd2 in RBCs, LDH growth readout, 72 h; at 2 µM; hits give high values
Would you please tag the item 1 when its growth inhibition is 50% or above, and 0 when it is below?

IN: Reported growth inhibition at or above 50%? "CC(C)(C)c1ccccc1OCCCON1C(N)=NC(N)=NC1(C)C"
OUT: 1

IN: Same thing, different compound: COc1ccc2nccc(CCC3(O)CCC(NCc4cc5c(cc4F)SCC(=O)N5)CC3)c2c1 (stereo not given)
OUT: 0

IN: Same thing, different compound: "COc1ccc2c(NN=Cc3cccc(F)c3)cc(C)nc2c1"
OUT: 1

IN: Same thing, different compound: "COc1cc2nc(N3CCN(c4cc(C)ccc4C)CC3)nc(N)c2cc1OC"
OUT: 0

IN: Same thing, different compound: "Cc1ccc2nc(C)cc(NN=Cc3ccccc3F)c2c1"
OUT: 1

IN: Same thing, different compound: "O=C(Nc1cccc(-c2cccc(-c3nc4ccc(F)cc4[nH]3)c2)c1)c1cnc[nH]1"
OUT: 1

IN: Same thing, different compound: "CC(C)NCc1ccc(-c2cccc(NC(=O)c3ccc(F)cc3)c2)cc1"
OUT: 0

IN: Same thing, different compound: "O=C(NCCOc1ccccc1)[C@H](Cc1ccccc1)Nc1ccnc(NCC2CCCCC2)n1"
OUT: 1

IN: Same thing, different compound: "COc1ccc(S(=O)(=O)Nc2ccc(C(=O)NCc3ccc(C(F)(F)F)cc3)cc2)cc1N1CCN(CC2CC2)CC1"
OUT: 0

IN: Same thing, different compound: "Fc1ccc2nc(-c3ccc(-c4cccc(CN5CCN(CCN6CCOCC6)CC5)c4)cc3)[nH]c2c1"
OUT: 1

* * *

- target_of_assay: L-lactate dehydrogenase (Plasmodium falciparum (isolate CDC / Honduras)) (UniProt Q27743)
- Sequence (Q27743 whole entry, looked up): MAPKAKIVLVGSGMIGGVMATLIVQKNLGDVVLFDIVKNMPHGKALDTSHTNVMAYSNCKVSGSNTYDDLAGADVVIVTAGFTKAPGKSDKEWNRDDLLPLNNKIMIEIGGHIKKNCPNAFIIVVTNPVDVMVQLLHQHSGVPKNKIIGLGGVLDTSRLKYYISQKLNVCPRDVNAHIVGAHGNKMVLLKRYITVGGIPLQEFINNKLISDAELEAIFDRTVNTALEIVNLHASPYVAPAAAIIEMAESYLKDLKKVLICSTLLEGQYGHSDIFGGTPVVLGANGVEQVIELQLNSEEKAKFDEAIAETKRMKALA
- assay_comment: PfLDH activity inhibition – cell lysate, 3D7 strain, counter-screen for P. falciparum growth inhibition project (AID 2304);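 note: 0% = vehicle and 100% = reference inhibitor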
- condition_label: P. falciparum 3D7 crude extract, LDH APAD/NBT absorbance; at 2 µM; hits give high values
assay_endpoint: inhibition (%)
Answers are plain numbers, in %.

Some solved entries appear below for comparison.
IN: Need inhibition, item "O=C(c1cccs1)N1CCN(c2ccc([N+](=O)[O-])c(NC3CC3)c2)CC1"
OUT: 2

IN: Same thing, different compound: "CCOc1ccccc1CNc1nccc(NCc2ccccc2OC)n1"
OUT: -2

IN: Same thing, different compound: "Cn1ccc2c3c(N)nc(N)nc3ccc21"
OUT: 6

IN: Same thing, different compound: "Cc1noc(C)c1-c1cccc(CNCc2cccc(-c3ccc(-c4nc5c(C)cccc5[nH]4)s3)c2)c1"
OUT: 1

IN: Same thing, different compound: CCC1N=C(N)N=C(N)N1OCc1cccc2ccccc12 (stereo not given)
OUT: -4

IN: Same thing, different compound: "O=[N+]([O-])c1cccc(Nc2cncc(-c3ccc(CO)cc3)c2)c1"
OUT: -5

IN: Same thing, different compound: "c1ccc(-n2ncc(CNCc3ccc(-c4cccc(-c5nc6ccccc6[nH]5)c4)cc3)n2)cc1"
OUT: 3

IN: Same thing, different compound: "CN1CCN(c2ccc3nc(-c4ccc5nc(-c6ccc(O)cc6)[nH]c5c4)[nH]c3c2)CC1"
OUT: 3

Below are 2 compounds. Give each one its inhibition.
1. COc1cc([N+](=O)[O-])ccc1NC(=O)Nc1ccc(OC(F)(F)F)cc1
2. Cc1ccnc(NC(c2cccc(Cl)c2Cl)c2ccc3cccnc3c2O)c1 (stereo not given)

OUT:
3
7
